Test system: CD2F1 mice, L1210 leukemia ip, survival T/C
RUN_DESCRIPTION: NCI In Vivo Anticancer Drug Screen. Data for tumor model L1210 Leukemia (intraperitoneal) in CD2F1 (CDF1) mice
CONDITION_INFO: endpoint: mean survival time; dose: 20.0 mg/kg/injection; schedule: Q01DX009 (ip); vehicle: saline with Tween-80; higher = longer survival
Inconclusive results and toxic doses are left out.
PROPERTY_MEASURED: T/C

CN1CCN(c2ccccc2N)CC1    102 % of control
Cc1ccc([NH-])c([NH-])c1.[Cl][Pt+2][Cl]    94 % of control
O=S(=O)(N1CCCCC1)N1CCNCC1    96 % of control

---

System: CD2F1 mice, L1210 leukemia ip, survival T/C
RUN_DESCRIPTION: NCI In Vivo Anticancer Drug Screen. Data for tumor model L1210 Leukemia (intraperitoneal) in CD2F1 (CDF1) mice
CONDITION_INFO: endpoint: mean survival time; dose: 200.0 mg/kg/injection; schedule: Q04DX002 (ip); vehicle: saline with Tween-80; higher = longer survival
Toxic doses and inconclusive results are not listed.
Here the recorded T/C is given for each entry.
PROPERTY_MEASURED: T/C

CCCCNC(=S)N/N=C/c1ccccn1    109 % of control
CCN=C(NCC)SCCSC(=NCC)NCC    102 % of control
COC(=O)/C([O-])=C(\C(=O)OC)[n+]1cc(Br)cc2ccccc21    104 % of control
O=C(O)C1CCc2c(cnn2-c2ccc(Cl)cc2)C1 (stereo unspecified)    103 % of control
C/C(=N\NS(=O)(=O)c1ccc(C)cc1)c1ccccc1    96 % of control
CN(C)/C=C\C(=O)O    102 % of control
NC(=O)C(CCCCC(C(N)=O)C(N)=O)C(N)=O    108 % of control
O=C(NCCS)Nc1ccccc1    96 % of control
OC1C(I)CC(Cl)C2CCC[N-]C12.OC1C(I)CC(Cl)C2CCC[N-]C12.[Cu+2] (stereo unspecified)    92 % of control
O=C(NCC1CCCCO1)Nc1ccc(Cl)cc1 (stereo unspecified)    102 % of control
CCOC(=O)C1C(=O)CC(c2ccccc2)C(C#N)(c2ccccc2)C1(O)c1ccccc1 (stereo unspecified)    90 % of control
Oc1ccccc1-c1nnc(-c2ccccc2)o1    95 % of control
CCCCN(CNC(C)=O)N=O    88 % of control
Cc1ccc2c(c1)C(=O)/C(=C/c1ccccn1)CCO2    88 % of control
Cc1c(Cl)c(Cl)c(Cl)c(I)c1Cl    93 % of control
Oc1ccccc1C=NC1CCCCC1N=Cc1ccccc1O.[Cu] (stereo unspecified)    88 % of control

---

System: CD2F1 mice, L1210 leukemia ip, survival T/C
RUN_DESCRIPTION: NCI In Vivo Anticancer Drug Screen. Data for tumor model L1210 Leukemia (intraperitoneal) in CD2F1 (CDF1) mice
CONDITION_INFO: endpoint: mean survival time; dose: 200.0 mg/kg/injection; schedule: Q01DX009 (ip); vehicle: saline with Tween-80; higher = longer survival
Toxic doses and inconclusive results are not listed.
Here the recorded T/C is given for each entry.
PROPERTY_MEASURED: T/C

Cc1ccc(-c2cc(Cl)c3cc(S(=O)(=O)F)ccc3n2)cc1    98 % of control
O=[N+]([O-])c1ccc(C2N(Cc3ccc(Cl)cc3)CCN2Cc2ccc(Cl)cc2)cc1    88 % of control
N#CCCN1C(=O)CCC1=O    95 % of control
C/C(CCC(=O)O)=N\NC(N)=O    97 % of control
CC(O)C(O)C(O)C(/C=N\N=C(/N)[S-])=N/N=C(\N)[S-].[Pt+2] (stereo unspecified)    94 % of control
CCN(CC)Cc1cc(Nc2ncnc3oc(C)c(C)c23)ccc1O    96 % of control
